target: recombinant human LTA4 hydrolase (rhLTA4H) (Homo sapiens, UniProt P09960); construct: made in house; host or cells: Spodoptera frugiperda (Sf-9) cells, baculovirus (pFastBac1); assay: Recombinant human LTA4 hydrolase assay for LTA4 hydrolase inhibitor activity; type: biochemical; conditions: rhLTA4H, LTB4 by immunoassay; single determination or average of two or more; mark after value = form tested: ′ free base, ″ hydrochloride, ^ formate; read-out: IC50
Sequence (P09960 whole entry): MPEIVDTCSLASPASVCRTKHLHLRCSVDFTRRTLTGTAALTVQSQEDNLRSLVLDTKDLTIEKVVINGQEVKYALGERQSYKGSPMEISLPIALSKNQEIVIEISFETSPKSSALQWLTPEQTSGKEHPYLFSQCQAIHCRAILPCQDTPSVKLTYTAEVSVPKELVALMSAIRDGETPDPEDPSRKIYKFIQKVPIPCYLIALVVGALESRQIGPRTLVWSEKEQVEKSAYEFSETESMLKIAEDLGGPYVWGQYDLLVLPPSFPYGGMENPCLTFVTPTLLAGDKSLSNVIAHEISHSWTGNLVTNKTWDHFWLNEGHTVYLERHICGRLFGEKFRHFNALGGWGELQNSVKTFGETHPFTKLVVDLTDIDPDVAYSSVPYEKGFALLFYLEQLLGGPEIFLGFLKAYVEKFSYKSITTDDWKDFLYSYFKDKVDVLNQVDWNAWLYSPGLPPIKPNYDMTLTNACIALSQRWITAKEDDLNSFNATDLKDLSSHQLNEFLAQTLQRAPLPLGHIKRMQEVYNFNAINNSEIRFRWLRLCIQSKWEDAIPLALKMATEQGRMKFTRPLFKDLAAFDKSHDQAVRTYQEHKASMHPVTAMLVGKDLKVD
pIC50: −log10 of the molar value. Where a name gives a salt, the structure may show the parent alone.
rule met means recorded pIC50 is 7 or above; rule not met means it is below 7.

Before answering, review these 3 worked examples.
INSERT INTO assay_data (compound, cat) VALUES
  ('CC(=O)N[C@H]1C[C@H]2CC[C@@H](C1)N2Cc1cc2cc(Oc3nc4cccnc4s3)ccc2o1 [Example 125]', 'rule not met'),
  ('CC(=O)N[C@H]1C[C@H]2CC[C@@H](C1)N2Cc1c[nH]c2cc(Oc3nc4cccnc4s3)ccc12 [Example 43]', 'rule met'),
  ('Fc1cccc2sc(Oc3ccc4oc(CN5CCCCC5)cc4c3)nc12 [Example 84, formate]', 'rule not met');

[ask] Dear colleague, could you confirm whether CC(C)(C)OC(=O)N1C[C@@H]2C[C@H]1CN2Cc1c[nH]c2cc(Oc3nc4ccccc4s3)ccc12 [Example 147] has pIC50 at or above 7?
[reply] rule met

[ask] Dear colleague, could you confirm whether COc1ccc(CNCc2coc3cc(Oc4nc5ncccc5s4)ccc23)cc1 [Example 346] has pIC50 at or above 7?
[reply] rule met

[ask] Dear colleague, could you confirm whether CC(C)(C)OC(=O)NC1CCN(Cc2c[nH]c3cc(Oc4nc5ccccc5s4)ccc23)CC1 [Example 145] has pIC50 at or above 7?
[reply] rule met

[ask] Dear colleague, could you confirm whether FC1CCN(Cc2cc3cc(Oc4nc5ncccc5s4)ccc3o2)CC1 [Example 111] has pIC50 at or above 7?
[reply] rule not met

----------
target: recombinant human LTA4 hydrolase (rhLTA4H) (Homo sapiens, UniProt P09960); construct: made in house; host or cells: Spodoptera frugiperda (Sf-9) cells, baculovirus (pFastBac1); assay: Recombinant human LTA4 hydrolase assay for LTA4 hydrolase inhibitor activity; assay type: biochemical; conditions: rhLTA4H, LTB4 by immunoassay; single determination or average of two or more; mark after value = form tested: ′ free base, ″ hydrochloride, ^ formate; read-out: IC50
So basically: is IC50 under 0.008 µM? Then true (1). Not under? Then false (0).

Before answering, review these 3 worked examples.
INSERT INTO results (compound, study_target, cat) VALUES
  ('O=C(O)C1CCCN(Cc2c[nH]c3cc(Oc4nc5ccccc5s4)ccc23)C1 (centres unmarked) [Example 47]', 'recombinant human LTA4 hydrolase (rhLTA4H) (Homo sapiens, UniProt P09960)', 'false (0)'),
  ('CC(=O)N[C@H]1C[C@H]2CC[C@@H](C1)N2Cc1cc2ccc(Oc3nc4ncccc4s3)cc2o1 [Example 118]', 'recombinant human LTA4 hydrolase (rhLTA4H) (Homo sapiens, UniProt P09960)', 'false (0)'),
  ('CCOC(=O)C1CCN(CCc2coc3cc(Oc4nc5ccccc5s4)ccc23)CC1 [Example 149]', 'recombinant human LTA4 hydrolase (rhLTA4H) (Homo sapiens, UniProt P09960)', 'false (0)');

[ask] hey, is IC50 for c1ccc2sc(Oc3cnc4c(CN5CCCCC5)c[nH]c4c3)nc2c1 [Example 31] lower than 0.008 µM or not?
[reply] false (0)

[ask] hey, is IC50 for NC(=O)N1CCN(Cc2coc3cc(Oc4nc5ncccc5s4)ccc23)CC1 [Example 239] lower than 0.008 µM or not?
[reply] true (1)

[ask] hey, is IC50 for O=C(C1CCC1)N1C[C@@H]2C[C@H]1CN2Cc1coc2cc(Oc3nc4ncccc4s3)ccc12 [Example 357] lower than 0.008 µM or not?
[reply] true (1)

[ask] hey, is IC50 for c1ccc2sc(Oc3ccc4[nH]cc(CCN5CCCCC5)c4c3)nc2c1 [Example 74] lower than 0.008 µM or not?
[reply] false (0)

----------
// reported inhibition at 30 mg/kg per item
system: arachidonic acid-induced neutrophil influx in murine ear tissue; experiment: Murine arachidonic acid-induced inflammation model: neutrophil influx (myeloperoxidase) in ear; format: in vivo, Balb/c mice; conditions: Mus musculus, Neutrophil, read-out: % Inh. MPO
Structures can show the parent of a compound that is named as a salt.
Number plus unit, in that order.

INSERT INTO results (compound, assay_result) VALUES
  ('NC(=O)N1C[C@@H]2CC[C@H]1CN2Cc1coc2cc(Oc3nc4ncccc4s3)ccc12 [Example 241, formate]', '85%'),
  ('O=C(O)C1CCN(Cc2coc3cc(Oc4nc5ccccc5s4)ccc23)CC1 [Example 248, formate]', '90%');

[ask] # query: inhibition at 30 mg/kg of entry CC(=O)N1C[C@@H]2CC[C@H]1CN2Cc1cc2ncc(Oc3nc4ncccc4s3)cc2o1 [Example 339, formate]
[reply] 50%

[ask] # query: inhibition at 30 mg/kg of entry O=C(c1coc2cc(Oc3nc4ncccc4s3)ccc12)N1CCC(N2CCCC2=O)CC1
[reply] 69%

----------
target: recombinant human LTA4 hydrolase (rhLTA4H) (Homo sapiens, UniProt P09960); construct: made in house; host or cells: Spodoptera frugiperda (Sf-9) cells, baculovirus (pFastBac1); experiment: Recombinant human LTA4 hydrolase assay for LTA4 hydrolase inhibitor activity; assay type: biochemical; settings: rhLTA4H, LTB4 by immunoassay; single determination or average of two or more; mark after value = form tested: ′ free base, ″ hydrochloride, ^ formate; read-out: IC50
Counter-ions that a name gives are not always drawn.
Reported Property: IC50
Number plus unit, in that order.

INSERT INTO measurements (molecule, assay_result) VALUES
  ('c1cnc2sc(Oc3ccc4c(CN5CCOCC5)c[nH]c4c3)nc2n1 [Example 56]', '81 nM');

[ask] IC50 of CCOC(=O)C1CCN(Cc2coc3cc(Oc4nc5ncccc5s4)ccc23)CC1 [Example 224] on recombinant human LTA4 hydrolase (rhLTA4H) (Homo sapiens, UniProt P09960)?
[reply] 2 nM

[ask] IC50 of c1ccc2sc(Oc3ccc4c(CN5C[C@@H]6C[C@H]5CN6)c[nH]c4c3)nc2c1 [Example 52] on recombinant human LTA4 hydrolase (rhLTA4H) (Homo sapiens, UniProt P09960)?
[reply] 23 nM

[ask] IC50 of NC(=O)N[C@H]1C[C@H]2CC[C@@H](C1)N2Cc1cc2cc(Oc3nc4ncccc4s3)ccc2o1 [Example 103] on recombinant human LTA4 hydrolase (rhLTA4H) (Homo sapiens, UniProt P09960)?
[reply] 4 nM

[ask] IC50 of CC(=O)N1C[C@@H]2CC[C@H]1CN2Cc1coc2cc(Oc3nc4ncccc4s3)ccc12 [Example 237] on recombinant human LTA4 hydrolase (rhLTA4H) (Homo sapiens, UniProt P09960)?
[reply] 2 nM

[ask] IC50 of c1cnc2nc(Oc3ccc4cc(CN5CCCCC5)[nH]c4c3)sc2c1 [Example 71] on recombinant human LTA4 hydrolase (rhLTA4H) (Homo sapiens, UniProt P09960)?
[reply] 17 nM

[ask] IC50 of CC(=O)NC1CCN(Cc2coc3cc(Oc4nc5ncccc5s4)ccc23)C1 (centres unmarked) [Example 307, formate] on recombinant human LTA4 hydrolase (rhLTA4H) (Homo sapiens, UniProt P09960)?
[reply] 5 nM

[ask] IC50 of Fc1cnc2sc(Oc3ccc4c(CN5CCOCC5)c[nH]c4c3)nc2c1 [Example 60] on recombinant human LTA4 hydrolase (rhLTA4H) (Homo sapiens, UniProt P09960)?
[reply] 169 nM

----------
system: LTB4 production in murine blood (LTA4H); experiment: LTB4 production by calcium ionophore-stimulated murine blood for LTA4H inhibitor activity; assay type: cell-based, CD-1 mice; details: Mus musculus; murine blood diluted 1 in 15, A23187 stimulated; single determination or average; mark after value = form tested: ′ free base, ″ hydrochloride, ^ formate; read-out: IC50
Where a name gives a salt, the structure may show the parent alone.
So basically: is IC50 under 200 nM? Then t. Not under? Then f.

Before answering, review these 3 worked examples.
INSERT INTO assay_data (compound, cat) VALUES
  ('c1ccc(CCNCc2coc3cc(Oc4nc5ncccc5s4)ccc23)cc1 [Example 321, formate]', 't'),
  ('CC(=O)N[C@H]1C[C@H]2CC[C@@H](C1)N2Cc1c[nH]c2cc(Oc3nc4ccccc4s3)ccc12 [Example 13]', 't'),
  ('C[C@H]1COCCN1Cc1coc2cc(Oc3nc4ncccc4s3)ccc12 [Example 159]', 't');

[ask] hey, is IC50 for CC(C)(C)OC(=O)N1CC2CN(Cc3c[nH]c4cc(Oc5nc6ccccc6s5)ccc34)CC2C1 (stereo not shown) [Example 146] lower than 200 nM or not?
[reply] f

[ask] hey, is IC50 for CS(=O)(=O)N1C[C@@H]2CC[C@H]1CN2Cc1coc2cc(Oc3nc4ncccc4s3)ccc12 [Example 245] lower than 200 nM or not?
[reply] t

[ask] hey, is IC50 for CC(=O)N1CCCN(C(=O)c2coc3cc(Oc4nc5ncccc5s4)ccc23)CC1 [Example 372] lower than 200 nM or not?
[reply] t

[ask] hey, is IC50 for O=C(c1coc2cc(Oc3nc4ncccc4s3)ccc12)N1CCC(F)CC1 [Example 376] lower than 200 nM or not?
[reply] t

[ask] hey, is IC50 for CC(=O)N1CCC2(CCN(Cc3cc4cc(Oc5nc6ncccc6s5)ccc4o3)CC2)CC1 [Example 167] lower than 200 nM or not?
[reply] f

[ask] hey, is IC50 for CC(=O)N[C@H]1C[C@H]2CC[C@@H](C1)N2C(=O)c1coc2cc(Oc3nc4ncccc4s3)ccc12 [Example 369] lower than 200 nM or not?
[reply] t

[ask] hey, is IC50 for CC(=O)N1C[C@H]2CC[C@@H](C1)N2Cc1cc2cc(Oc3nc4ncccc4s3)ccc2o1 [Example 93] lower than 200 nM or not?
[reply] t

[ask] hey, is IC50 for c1cnc2nc(Oc3ccc4c(CN5CCC(N6CCCCC6)CC5)coc4c3)sc2c1 [Example 284, formate] lower than 200 nM or not?
[reply] t

[ask] hey, is IC50 for NC(=O)C1CCN(Cc2c[nH]c3cc(Oc4nc5ccccc5s4)ccc23)CC1 [Example 21] lower than 200 nM or not?
[reply] t

[ask] hey, is IC50 for c1ccc(C2CCN(Cc3coc4cc(Oc5nc6ncccc6s5)ccc34)CC2)cc1 [Example 280, formate] lower than 200 nM or not?
[reply] t

[ask] hey, is IC50 for CCOC(=O)[C@@H]1CCCN(Cc2c[nH]c3cc(Oc4nc5ccccc5s4)ccc23)C1 [Example 144] lower than 200 nM or not?
[reply] f

[ask] hey, is IC50 for CC(=O)N[C@H]1C[C@H]2CC[C@@H](C1)N2CCc1coc2cc(Oc3nc4ccccc4s3)ccc12 [Example 129] lower than 200 nM or not?
[reply] t
